TESTED_SYSTEM: Ephrin type-A receptor 5 (Homo sapiens) (UniProt P54756)
Sequence (P54756 whole entry): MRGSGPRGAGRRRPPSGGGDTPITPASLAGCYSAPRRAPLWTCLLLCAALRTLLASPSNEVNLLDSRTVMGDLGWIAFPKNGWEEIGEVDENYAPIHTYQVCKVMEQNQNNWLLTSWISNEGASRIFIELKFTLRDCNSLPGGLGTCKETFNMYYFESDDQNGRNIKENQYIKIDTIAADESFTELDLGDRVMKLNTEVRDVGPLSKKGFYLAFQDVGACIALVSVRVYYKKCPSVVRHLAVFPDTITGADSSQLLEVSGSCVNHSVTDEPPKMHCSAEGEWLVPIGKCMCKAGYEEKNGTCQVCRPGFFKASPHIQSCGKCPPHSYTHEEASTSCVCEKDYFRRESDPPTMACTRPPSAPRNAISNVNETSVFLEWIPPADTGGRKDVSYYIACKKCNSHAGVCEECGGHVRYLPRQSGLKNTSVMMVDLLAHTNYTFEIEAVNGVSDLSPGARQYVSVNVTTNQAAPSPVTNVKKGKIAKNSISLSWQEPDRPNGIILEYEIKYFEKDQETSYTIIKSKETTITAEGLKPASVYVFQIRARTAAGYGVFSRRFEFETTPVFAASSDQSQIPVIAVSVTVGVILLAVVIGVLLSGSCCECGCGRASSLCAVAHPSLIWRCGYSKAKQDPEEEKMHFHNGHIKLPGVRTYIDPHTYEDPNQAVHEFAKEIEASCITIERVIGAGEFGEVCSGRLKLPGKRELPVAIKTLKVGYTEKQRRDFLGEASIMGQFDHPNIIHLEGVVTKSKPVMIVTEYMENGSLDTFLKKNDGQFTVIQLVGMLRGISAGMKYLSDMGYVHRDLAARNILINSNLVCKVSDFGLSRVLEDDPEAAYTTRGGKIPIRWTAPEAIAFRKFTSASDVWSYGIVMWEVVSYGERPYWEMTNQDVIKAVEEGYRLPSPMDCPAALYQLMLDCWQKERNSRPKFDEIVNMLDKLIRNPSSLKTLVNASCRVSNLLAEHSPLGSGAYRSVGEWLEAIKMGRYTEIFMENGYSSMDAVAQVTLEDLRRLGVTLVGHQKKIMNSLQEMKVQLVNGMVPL
TEST_CONTEXT: at 1 µM
MEASURED_ATTRIBUTE: residual activity (%)
Quick reminder: number only, in %, skip the unit.

Example cases with answers are listed next.
>>> recorded_number("COc1ccc(CNc2nc(N(CCO)CCO)nc3c2ncn3C(C)C)cc1")
126
>>> recorded_number("CO[C@@H]1[C@H](N(C)C(=O)c2ccccc2)C[C@H]2O[C@]1(C)n1c3ccccc3c3c4c(c5c6ccccc6n2c5c31)C(=O)NC4")
97
>>> recorded_number("O=C(Nc1cccc(Nc2nccc(Nc3cccc(C(F)(F)F)c3)n2)c1)C1CC1")
99
>>> recorded_number("Nc1n[nH]c2nnc(-c3c(-c4ccccc4)nn4ccccc34)cc12")
91

Query: Entry `O=C1NC(=O)c2cc(Nc3ccc(F)cc3)c(Nc3ccc(F)cc3)cc21` has what residual activity?
Result: 93

Query: Entry `c1ccc2c(-c3ccncc3)c[nH]c2c1` has what residual activity?
Result: 102

====

Recorded residual activity values for a group of compounds are listed next.
TESTED_SYSTEM: Serine/threonine-protein kinase ULK3 (Homo sapiens) (UniProt Q6PHR2)
Sequence (Q6PHR2 whole entry): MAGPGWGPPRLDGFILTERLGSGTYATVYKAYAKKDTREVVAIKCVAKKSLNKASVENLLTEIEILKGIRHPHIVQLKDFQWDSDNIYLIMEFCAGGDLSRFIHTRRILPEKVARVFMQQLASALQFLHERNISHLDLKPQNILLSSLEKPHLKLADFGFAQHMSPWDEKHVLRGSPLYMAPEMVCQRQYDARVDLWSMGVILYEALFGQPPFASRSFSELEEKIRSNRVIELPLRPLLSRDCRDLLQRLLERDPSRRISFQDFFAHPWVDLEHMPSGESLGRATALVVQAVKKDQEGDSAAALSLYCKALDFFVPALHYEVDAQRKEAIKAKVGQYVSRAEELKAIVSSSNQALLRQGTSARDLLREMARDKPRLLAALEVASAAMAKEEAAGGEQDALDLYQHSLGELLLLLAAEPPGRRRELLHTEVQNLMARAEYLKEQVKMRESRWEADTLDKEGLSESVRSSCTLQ
TEST_CONTEXT: at 1 µM
Quick reminder: number only, in %, skip the unit.

Example cases with answers are listed next.
>>> recorded_number("O=C1NC(=O)c2c1c1c3ccccc3[nH]c1c1[nH]c3cc(Br)ccc3c21")
88
>>> recorded_number("COc1ccc(C(=O)Nc2sc3c(c2C(N)=O)CCCC3)cc1OC")
99
>>> recorded_number("Oc1ccc(-c2nc(-c3ccc(F)cc3)c(-c3ccncc3)[nH]2)cc1")
102
>>> recorded_number("COc1cc2ncnc(Nc3ccc(O)c(Br)c3)c2cc1OC")
91
>>> recorded_number("Cc1nc(-c2ccccc2)c(-c2ccncc2)o1")
104
>>> recorded_number("CC[n+]1c(/C=C/N(C)c2ccccc2)n(-c2ccccc2)c2ccc(-c3nc4ccccc4s3)cc21")
112

We next turn to a different compound, shown below.
Query: Entry `Cc1cncc2cccc(S(=O)(=O)N3CCCN(C(=O)CN)C[C@H]3C)c12` has what residual activity?
Result: 97

====

TESTED_SYSTEM: CDK6/cyclin D3 (Homo sapiens) (UniProt P30281+Q00534)
TEST_CONTEXT: at 10 µM
Description: Millipore: Percentage of residual kinase activity of CDK6 at 10uM relative to control. Control inhibitor: Phosphoric acid* at 0.3uM. Buffer: 8 mM MOPS pH 7.0, 0.2 mM EDTA
MEASURED_ATTRIBUTE: residual activity (%)
Quick reminder: number only, in %, skip the unit.

Query: Entry `CCN(CC)C(=O)c1ccc(Nc2nc(OCC3CCCCC3)c3nc[nH]c3n2)cc1` has what residual activity?
Result: 5

Query: Entry `Cc1nc2cc3nc(-c4cccs4)cnc3cc2n1C` has what residual activity?
Result: 93

Query: Entry `O=C(Nc1cccc(Nc2cc(Nc3cccc(C(F)(F)F)c3)ncn2)c1)C1CC1` has what residual activity?
Result: 69

Query: Entry `Cc1ccc(S(=O)(=O)/C=C/C#N)cc1` has what residual activity?
Result: 93

Query: Entry `COc1ccc(CNc2nc(N(CCO)CCO)nc3c2ncn3C(C)C)cc1` has what residual activity?
Result: 77

====

TESTED_SYSTEM: Focal adhesion kinase 1 (Homo sapiens)
TEST_CONTEXT: at 1 µM
Recorded residual activity values for a group of compounds are listed next.
Quick reminder: number only, in %, skip the unit.

Example cases with answers are listed next.
>>> recorded_number("CO[C@H]1[C@@H](OC)C[C@H](C)[C@@H](OC)C2=CC(=O)C=C(NC(=O)/C(C)=C/C=C/[C@H](OC)[C@@H](OC(N)=O)/C(C)=C/[C@@H]1C)C2=O")
110
>>> recorded_number("COc1ccc(OC)c2c(=S)c3ccccc3[nH]c12")
91
>>> recorded_number("CN(C)c1ccc(/C=C2\\C(=O)Nc3ccccc32)cc1")
82
>>> recorded_number("COc1cc2ncnc(Nc3ccc(NC(=O)c4ccccc4)cc3)c2cc1OC")
142

We next turn to a different compound, shown below.
Query: Entry `O=C1NC(=O)c2cc(Nc3ccc(F)cc3)c(Nc3ccc(F)cc3)cc21` has what residual activity?
Result: 137
